TGT: STING (Homo sapiens, UniProt Q86WV6, G230A/H232R/R293Q/R71H)
Sequence (Q86WV6 whole entry R71H/G230A/H232R/R293Q): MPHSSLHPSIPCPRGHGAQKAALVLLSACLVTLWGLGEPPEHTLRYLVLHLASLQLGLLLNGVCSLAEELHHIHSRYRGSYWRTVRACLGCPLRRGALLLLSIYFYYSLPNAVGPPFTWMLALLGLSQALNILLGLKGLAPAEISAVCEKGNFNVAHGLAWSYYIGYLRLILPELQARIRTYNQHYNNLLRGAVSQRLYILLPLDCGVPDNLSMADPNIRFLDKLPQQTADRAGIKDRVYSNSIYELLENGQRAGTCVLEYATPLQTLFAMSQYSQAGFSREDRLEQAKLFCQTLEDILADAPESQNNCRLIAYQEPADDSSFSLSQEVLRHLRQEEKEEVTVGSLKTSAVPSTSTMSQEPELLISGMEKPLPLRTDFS
EXPERIMENT_NOTES: STING reporter assay in THP1-Dual KO-IFNAR2 cells (2′3′cGAMP stimulation, luciferase reporter)
CONDITIONS_USED: 15 μM 2′3′cGAMP stimulation, 24 h, read-out: Pharmaron, THP1_IFNAR2 STING 24 h Luci Normalized: GeoMean EC50
pEC50: −log10 of the molar value.
Entries and their pEC50 values follow.

MOLECULE	pEC50
O=C(Nc1c[nH]c2ccc(O[C@H]3C[C@@H](c4ccc(C(F)(F)F)cc4)C3)cc12)C1(C(F)(F)F)CC1 [Compound 353]	6.00 to 6.70
CC1(C(=O)Nc2c[nH]c3ccc(O[C@H]4C[C@@H](c5ccc(C(F)(F)F)cc5)C4)cc23)CC1 [Compound 263]	6.00 to 6.70
CNC(Cc1ccc(C(F)(F)F)cc1)Cc1ccc2[nH]cc(NC(C)=O)c2c1 (stereo not drawn) [Compound 506]	4.00 to 5.30
CC(=O)Nc1c[nH]c2ccc(O[C@H]3C[C@H](c4ccc(C(F)(F)F)cc4)C3)cc12 [Compound 103]	6.70 to 7.40
COCCOCC(=O)Nc1c[nH]c2ccc(O[C@H]3C[C@H](c4ccc(C(F)(F)F)cc4)C3)cc12 [Compound 486]	6.70 to 7.40
COCC1(C(=O)Nc2c[nH]c3ccc(OCCc4ccc(C(F)(F)F)cc4)cc23)CC1 [Compound 204]	6.70 to 7.40
CC(C)(C)CC(=O)Nc1c[nH]c2ccc(OCc3ccc(C(F)(F)F)cc3)cc12 [Compound 314]	6.00 to 6.70
CC1(C(=O)Nc2c[nH]c3ccc(OCc4ccc(C(F)(F)F)cc4)cc23)CCNCC1 [Compound 528]	4.00 to 5.30
O=C(Nc1c[nH]c2ccc(OCCc3ccc(C(F)(F)F)cc3)cc12)C1CN(CCC(F)(F)F)C1 [Compound 299]	6.00 to 6.70
CC(=O)Nc1c[nH]c2ccc(OC(C)Cc3ccc(C(F)(F)F)cc3)cc12 (single isomer, unassigned) [Compound 285]	5.30 to 6.00
COC1CC(C(=O)Nc2c[nH]c3ccc(OCc4ccc(C(F)(F)F)cc4)cc23)C1 (stereo not drawn) [Compound 352]	6.70 to 7.40
CC1(C(=O)Nc2c[nH]c3ccc(CC(O)Cc4ccc(C(F)(F)F)cc4)cc23)CC1 (stereo not drawn) [Compound 174]	6.00 to 6.70
CC(=O)Nc1c[nH]c2ccc(CCOc3ccc(C4CC(F)(F)C4)cc3)cc12 [Compound 225]	6.70 to 7.40
CC1(C(=O)Nc2c[nH]c3ccc(OCCc4ccc(C(F)(F)F)cc4)cc23)CCC1 [Compound 235]	6.70 to 7.40
O=C(CC(O)C(F)(F)F)Nc1c[nH]c2ccc(OCC[C@@H]3C[C@@H]4CN(CC(F)(F)F)C[C@@H]4C3)cc12 (stereo partly drawn) [Compound 433]	6.00 to 6.70
C[C@]1(C(=O)Nc2c[nH]c3ccc(OCC[C@@H]4C[C@@H]5CN(CC(F)(F)F)C[C@@H]5C4)cc23)CC[C@@H](O)CC1 [Compound 505]	6.00 to 6.70
CC(=O)Nc1c[nH]c2ccc(CO[C@H]3C[C@@H](c4ccc(C(F)(F)F)cc4)C3)cc12 [Compound 500]	6.70 to 7.40
O=C(Nc1c[nH]c2ccc(OCC[C@@H]3C[C@@H]4CN(CC(F)(F)F)C[C@@H]4C3)cc12)C1(C(F)(F)F)CC1 [Compound 366]	6.00 to 6.70
COCC(=O)Nc1c[nH]c2ccc(O[C@H]3C[C@H](c4ccc(C(F)(F)F)cc4)C3)cc12 [Compound 258]	6.70 to 7.40
CC(=O)Nc1c[nH]c2ccc(OCC3CCN(CC(F)(F)F)CC3)cc12 [Compound 119]	4.00 to 5.30
CC(C)(C)C(=O)Nc1c[nH]c2ccc(OCC[C@@H]3C[C@@H]4CN(CC(F)(F)F)C[C@@H]4C3)cc12 [Compound 367]	6.00 to 6.70
COCCOCC(=O)Nc1c[nH]c2ccc(OCCc3ccc(C(F)(F)F)cc3)cc12 [Compound 407]	6.00 to 6.70
C[C@H]1C[C@H](C(=O)Nc2c[nH]c3ccc(OCCc4ccc(C(F)(F)F)cc4)cc23)C1 [Compound 205]	6.70 to 7.40
O=C(Nc1c[nH]c2ccc(O[C@H]3C[C@@H](c4ccc(C(F)(F)F)cc4)C3)cc12)[C@H]1C[C@@H](O)C1 [Compound 337]	6.00 to 6.70
CC(=O)Nc1c[nH]c2ccc(CCOc3cnc4c(C(F)(F)F)cccc4c3)cc12 [Compound 555]	5.30 to 6.00
CC(C)(C)CC(=O)Nc1c[nH]c2ccc(OCCc3ccc(C(F)(F)F)cc3)cc12 [Compound 202]	6.70 to 7.40
O=C(Nc1c[nH]c2ccc(OCCc3ccc(C(F)(F)F)cc3)cc12)C1CC1 [Compound 252]	6.70 to 7.40
CCC(=O)Nc1c[nH]c2ccc(COc3ccc(C(F)(F)F)cc3)cc12 [Compound 130]	6.00 to 6.70
O=C(Nc1c[nH]c2ccc(CCOc3ccc(C(F)(F)F)cc3)cc12)C1CC1 [Compound 592]	6.00 to 6.70
C[C@]1(C(=O)Nc2c[nH]c3ccc(OCC[C@@H]4C[C@@H]5CN(CC(F)(F)F)C[C@@H]5C4)cc23)C[C@H](O)C1 [Compound 514]	6.00 to 6.70

Reference for the values: patent US12503436B2
